Test: Clinical pharmacological trial: pharmacokinetics after single-dose edoxaban 15 mg in individuals with renal functional impairment
Conditions: human, in vivo, 15 mg, C24h Geometric mean (plasma edoxaban concentration 24 hours after administration), single-dose 15 mg; peritoneal dialysis patient
measured_attribute: concentration at 24 h (ng/mL)

[[record]]
line_notation = "CN1CCc2nc(C(=O)N[C@@H]3C[C@@H](C(=O)N(C)C)CC[C@@H]3NC(=O)C(=O)Nc3ccc(Cl)cn3)sc2C1"
result_value = 8.24


----------
Test: Clinical pharmacological trial: pharmacokinetics after single-dose edoxaban 15 mg in individuals with renal functional impairment
Conditions: human, in vivo, 15 mg, t1/2 Geometric least squares mean, single-dose 15 mg; moderate renal impairment (30 ≦ CLCR < 50 mL/min)
measured_attribute: half-life (h)

[[record]]
compound = "CN1CCc2nc(C(=O)N[C@@H]3C[C@@H](C(=O)N(C)C)CC[C@@H]3NC(=O)C(=O)Nc3ccc(Cl)cn3)sc2C1 [edoxaban]"
result_value = 9.44


----------
Assay: Clinical pharmacological trial: pharmacokinetics after single-dose edoxaban 15 mg in individuals with renal functional impairment
Details: human, in vivo, 15 mg, C24h Geometric mean (plasma edoxaban concentration 24 hours after administration), single-dose 15 mg; healthy adult (CLCR > 80 mL/min)
measured_attribute: concentration at 24 h (ng/mL)

[[record]]
line_notation = "CN1CCc2nc(C(=O)N[C@@H]3C[C@@H](C(=O)N(C)C)CC[C@@H]3NC(=O)C(=O)Nc3ccc(Cl)cn3)sc2C1"
result_value = 2.34


----------
Test: Clinical pharmacological trial: pharmacokinetics after single-dose edoxaban 15 mg in individuals with renal functional impairment
Settings: human, in vivo, 15 mg, t1/2 Geometric least squares mean, single-dose 15 mg; severe renal impairment (CLCR < 30 mL/min, nondialyzed)
Experimental: Edoxaban was subjected to a clinical trial targeting individuals with renal functional impairment, in which edoxaban was studied for its pharmacokinetics in the individuals with renal functional impairment (Non-patent literature 4). In this clinical trial, 15 mg of edoxaban was administered at a single dose to each patient in five groups differing in the severity of renal functional impairment.
measured_attribute: half-life (h)

[[record]]
line_notation = "CN1CCc2nc(C(=O)N[C@@H]3C[C@@H](C(=O)N(C)C)CC[C@@H]3NC(=O)C(=O)Nc3ccc(Cl)cn3)sc2C1"
result_value = 16.9

